From: patent US8946266B2

Test system: Aβ42
test-details: γ-secretase-modulating activity, Method 2: Aβ42 Alphalisa in supernatant of SKNBE2 cells carrying APP 695-wild type (Table 3b)
Format: cell-based
run-parameters: overnight
We begin with a simple list: items and their reported pIC50.
Scale note: pIC50 = -log10(concentration in M).

Answered examples (5):
- COc1cc(-c2ncn(-c3ccccc3C(F)(F)F)n2)ccc1-n1cnc(C)c1: 5.87
- COc1cc(Nc2nc(-c3ccc(-n4cnc(C)c4)c(OC)c3)nn2C)ccc1F: 7.20
- COc1cc(F)c(F)c(Nc2nc(-c3ccc(-n4cnc(C)c4)c(OC)c3)nn2C)c1: 7.12
- CCn1nc(-c2ccc(-n3cnc(C)c3)c(OC)c2)nc1Nc1ccccc1C(F)(F)F: 7.39
- Cc1cn(-c2ccc(-c3nc(Nc4ccccc4C(F)(F)F)n(C)n3)cc2C#N)cn1: 6.74

For this molecule ( COc1cc(-c2nc(Nc3cc(C(C)(C)C)ccc3F)n(C)n2)ccc1-n1cnc(C)c1 ), measured pIC50 is 8.15

For this molecule ( COc1cc(-c2nc(Nc3ccccc3C(C)=O)n(C)n2)ccc1-n1cnc(C)c1 ), measured pIC50 is 5.88

For this molecule ( COc1cc(-c2nc3n(n2)CCCC3c2cccc(OC(F)(F)F)c2)ccc1-n1cnc(C)c1 (stereo not drawn) ), measured pIC50 is 7.31
